Just for reference, patent US20130302346A1 is where these values come from.

Biological target: T1, Human NOTUM (human, UniProt Q6P988 20-496)
T1 sequence: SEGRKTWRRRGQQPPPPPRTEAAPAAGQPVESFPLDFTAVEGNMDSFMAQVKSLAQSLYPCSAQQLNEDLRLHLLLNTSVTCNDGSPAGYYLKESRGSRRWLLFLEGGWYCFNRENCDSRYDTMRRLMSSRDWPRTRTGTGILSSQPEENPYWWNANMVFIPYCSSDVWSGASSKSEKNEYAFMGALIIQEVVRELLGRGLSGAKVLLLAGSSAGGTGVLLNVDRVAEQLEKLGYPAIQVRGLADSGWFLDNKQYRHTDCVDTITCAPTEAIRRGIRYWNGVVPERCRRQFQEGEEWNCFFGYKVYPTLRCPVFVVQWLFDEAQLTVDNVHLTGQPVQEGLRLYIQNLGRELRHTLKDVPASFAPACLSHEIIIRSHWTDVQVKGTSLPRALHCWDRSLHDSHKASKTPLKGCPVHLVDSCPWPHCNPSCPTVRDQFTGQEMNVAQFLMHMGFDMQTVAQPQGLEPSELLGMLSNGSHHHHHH
Assay: cell-based or functional assay
measurement label: Wnt signaling IC50 (nM; human NOTUM) (nM)
Field: numeric (nM). Do not append units.

Notebook: MAb 1.802 (antibody, V domains shown, Mouse monoclonal antibody from Campaign 1 (raised against human NOTUM), IgG1) VH: EVQLVESGGGLVKPGGSLKLSCAASGFTFSDYGMHWFRQAPEKGLEWVAYISSGSRTVYYADTVKGRFTISRDNAKNTLSLQMTSLRSEDTAMYYCARKHYNGGYFDVWGTGTTVTVSS VL: DIVLTQSPASLAVSLGQRATISCRASKIVSTSGYSYMHWYQQKPGQPPKLLIYLASNLESGVPARFSGSGSGTDFTLNIHPVEEEDAATYYCQHSRELPPTFGSGTKLEIKR , Wnt signaling IC50 (nM; human NOTUM) read as 5.71
